All values here come from PubChem BioAssay.

experiment: S6 kinase pathway phospho-S6 level changes – cell-based, A549, cytoblot, luminescence, serum-stimulated, primary screen (AID 1158); details: 5 h, higher = more signal;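 further: serum-stimulated A549 lung adenocarcinoma cells; signal is phosphorylated S6 detected by cytoblot immunostaining with HRP secondary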
result_type: z-score

>  <compound>
COc1ccc(C(O)C2C=CC3C(=O)N(c4ccccc4)C(=O)C3N2Nc2ccccc2)c2ccccc12 (configuration not stated)

>  <value>
-0.654

$$$$
>  <compound>
O=C1OCC=C[C@H]2OC34C=CCN(c5ccc6ccccc6c5)C(=O)[C@H]3N(CCO)C(=O)[C@@H]4[C@@H]12 (some centres not stated)

>  <value>
-0.572

$$$$
>  <compound>
COC(=O)C(CC#Cc1ccc2c(c1)[C@]1(C(=O)N2)[C@H](C(=O)N2CCCCCCC2)[C@H]2C(=O)O[C@H](c3ccccc3)[C@H](c3ccccc3)N2[C@@H]1c1ccccc1OCCO)C(=O)OC

>  <value>
-0.0756

$$$$
>  <compound>
COCCOC(=O)N1C(=O)[C@@]2(c3ccccc31)[C@H](c1ccc(O)cc1)N1[C@H](c3ccccc3)[C@H](c3ccccc3)OC(=O)[C@H]1[C@@H]2C(N)=O

>  <value>
-0.0639

$$$$
>  <compound>
C=C(CCCC)C(=O)CC[C@H](OC(C)=O)c1ccc(CO)o1

>  <value>
0.612

$$$$
>  <compound>
CCCNC(=O)[C@@]1(C)c2ccccc2C(=O)N(Cc2cc(C(F)(F)F)cc(C(F)(F)F)c2)[C@H]1c1ccc(CO)cc1

>  <value>
1.49

$$$$
>  <compound>
C=C(CCCC)/C(=C/C[C@H](OC(C)=O)c1ccc(CO)o1)c1cc(C(=O)OC)ccc1OC

>  <value>
1.61

$$$$

* * *

experiment: plasmodial surface anion channel blockers, osmotic lysis – cell-based, P. falciparum Indochina, OD700, 2 h, primary screen (AID 1155);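 further: lysis reports solute entry through the parasite surface anion channel PSAC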; details: P. falciparum Indochina infected erythrocytes, higher = more signal, called active from +8 up or from −8 down

>  <compound>
CCCCC(=O)N(Cc1ccccc1F)[C@@H]1CC(C(=O)NCCO)=C[C@H](Oc2c(I)cc(CO)cc2OC)[C@H]1O

>  <z-score>
3.13

$$$$
>  <compound>
O=C1C2C=CC(C(O)CCc3ccccc3)N(Nc3ccccc3)C2C(=O)N1c1ccccc1 (configuration not stated)

>  <z-score>
1.32

$$$$
>  <compound>
[N-]=[N+]=Nc1ccccc1[C@@H]1OC(c2ccc(OCCCO)cc2)=N[C@]1(CCS(=O)(=O)c1ccccc1)C(=O)O

>  <z-score>
24.4

$$$$
>  <compound>
C=C(/C(=C/C[C@@H](OC(=O)c1ccncc1)c1ccc(CO)o1)c1cc(C(=O)OC)ccc1OC)C(C)C

>  <z-score>
1.47

$$$$
>  <compound>
C=CCOC(=O)[C@H]1[C@@H]2C(=O)O[C@@H](c3ccccc3)[C@@H](c3ccccc3)N2[C@@H](c2ccc(OCCOC(=O)[C@H]3C[C@H]4C(=O)N[C@@H](CCCC[N+](C)(C)C)C(=O)N4[C@H]3c3ccc(O)cc3)cc2)[C@]12C(=O)Nc1ccccc12

>  <z-score>
-1.12

$$$$
>  <compound>
C=CCCN(CC#C[C@H]1Oc2ccccc2S(=O)(=O)N2CCC[C@@H]12)S(=O)(=O)c1ccc(C)cc1

>  <z-score>
0.451

$$$$
>  <compound>
C=CCOC(=O)[C@@H]1[C@H]2C(=O)O[C@H](c3ccccc3)[C@H](c3ccccc3)N2[C@H](c2ccc(OCCOC(=O)[C@H]3C[C@H]4C(=O)N[C@@H](CC(C)C)C(=O)N4[C@H]3c3cccc(OCCO)c3)cc2)[C@@]12C(=O)Nc1ccc(I)cc12

>  <z-score>
-0.154

$$$$
>  <compound>
COC(=O)[C@@]1(Cc2ccc(F)cc2)[C@H]2c3cc(C(=O)N(C)C)n(CCc4c[nH]c5ccc(OC)cc45)c3C[C@H]2CN1C(=O)c1ccccc1

>  <z-score>
0.1

$$$$
>  <compound>
CC(=O)NCCCC[C@@H]1NC(=O)[C@@H]2C[C@H](C(=O)NCc3ccc(F)cc3)[C@H](c3ccc(O)cc3)N2C1=O

>  <z-score>
0.549

$$$$
>  <compound>
CC(C)[Si]1(C(C)C)O[C@@H](c2ccccc2)c2cc(-c3ccc(-c4ccc(Cl)c(Cl)c4)o3)nc(CCc3ccccc3)c21

>  <z-score>
0.652

$$$$
>  <compound>
COc1ccccc1CN1C(=O)c2ccccc2[C@](Cc2ccccc2I)(C(=O)NCc2ccccc2)[C@@H]1c1ccc(CO)cc1

>  <z-score>
-0.0098

$$$$
>  <compound>
CCOC(=O)C1=CC[C@@H](c2ccccc2)N(S(=O)(=O)c2ccc(C)cc2)[C@H]1c1ccc(C#N)cc1

>  <z-score>
0.858

$$$$
